target: Nociceptin receptor (Homo sapiens)
Sequence (P41146 whole entry): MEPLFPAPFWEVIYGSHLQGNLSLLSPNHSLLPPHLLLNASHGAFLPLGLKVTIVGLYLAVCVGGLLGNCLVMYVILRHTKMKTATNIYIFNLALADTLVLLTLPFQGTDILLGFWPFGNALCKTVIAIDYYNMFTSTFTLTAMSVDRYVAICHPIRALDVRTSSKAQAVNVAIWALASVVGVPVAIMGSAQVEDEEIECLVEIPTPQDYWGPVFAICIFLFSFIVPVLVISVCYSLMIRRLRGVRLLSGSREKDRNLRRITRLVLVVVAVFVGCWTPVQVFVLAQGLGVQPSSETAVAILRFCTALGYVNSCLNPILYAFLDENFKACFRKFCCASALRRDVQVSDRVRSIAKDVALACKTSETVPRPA
RESULT TYPE: Ki (nM)
Express the result in nM but write the number alone.

query: Can you look up Ki on Nociceptin receptor (Homo sapiens) for "Ac-RYYRWKKKKKKK-NH2" ?
result: 0.5
